Test: Human HepG2 cell viability assay in 384 well format
Type: toxicity, cell-based
Set-up: dose 125 nL, time 70.5 hour; concentration not given beside the values
Details: HepG2 cells, read-out: Inhibition
measured quantity: cytotoxicity at 70.5 h (%)

[[record]]
molecule = "Cc1ccc(-c2cc(CN3CCCC(Cn4cncn4)C3)on2)cc1 (stereo not drawn)"
unit_text = "%"
recorded_measurement = 27.6

[[record]]
molecule = "COc1cc(C)c(-c2ccc(F)c3c2OC(CN)C3)cc1C (stereo not drawn)"
unit_text = "%"
recorded_measurement = -0.0935

[[record]]
molecule = "COc1c(C)cnc(CNC(=O)c2cc(C)nc3onc(C)c23)c1C"
unit_text = "%"
recorded_measurement = -5.39


These entries and their values trace back to ChEMBL document CHEMBL3507680.
